Biological target: T1, mNPR1-mFc (mouse)
T1 construct: also called mouse NPR1 extracellular domain expressed with a C-terminal mouse IgG2a
T1 chain: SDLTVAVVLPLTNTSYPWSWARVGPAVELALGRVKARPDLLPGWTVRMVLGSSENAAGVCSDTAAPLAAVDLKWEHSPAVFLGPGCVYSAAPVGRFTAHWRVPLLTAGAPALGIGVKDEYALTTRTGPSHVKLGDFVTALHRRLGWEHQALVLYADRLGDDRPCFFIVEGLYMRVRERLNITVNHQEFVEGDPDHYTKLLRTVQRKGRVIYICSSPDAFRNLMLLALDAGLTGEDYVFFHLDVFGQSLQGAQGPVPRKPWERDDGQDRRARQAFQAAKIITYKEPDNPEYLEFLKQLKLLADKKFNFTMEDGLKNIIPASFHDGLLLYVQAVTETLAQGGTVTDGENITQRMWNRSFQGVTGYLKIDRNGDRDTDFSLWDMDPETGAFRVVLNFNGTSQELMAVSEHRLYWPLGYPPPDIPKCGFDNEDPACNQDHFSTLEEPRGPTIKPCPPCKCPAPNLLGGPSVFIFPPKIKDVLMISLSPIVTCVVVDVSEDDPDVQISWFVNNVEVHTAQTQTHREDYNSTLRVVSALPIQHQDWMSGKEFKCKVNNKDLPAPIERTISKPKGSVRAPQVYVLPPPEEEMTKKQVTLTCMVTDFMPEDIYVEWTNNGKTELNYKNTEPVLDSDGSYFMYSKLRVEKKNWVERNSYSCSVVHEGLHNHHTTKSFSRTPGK
Assay: SPR Biacore, mAb captured by anti-human Fc, 37C
In this section, each of the binders is paired with its reported 100 nM Ag Bound (RU).

// below: answered binders
{"BINDER": "mAb25479 (antibody, human IgG4, V domains shown) VH: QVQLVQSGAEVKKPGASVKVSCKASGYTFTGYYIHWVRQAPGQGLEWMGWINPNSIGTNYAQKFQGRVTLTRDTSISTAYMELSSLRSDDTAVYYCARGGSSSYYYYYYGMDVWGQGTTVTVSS VL: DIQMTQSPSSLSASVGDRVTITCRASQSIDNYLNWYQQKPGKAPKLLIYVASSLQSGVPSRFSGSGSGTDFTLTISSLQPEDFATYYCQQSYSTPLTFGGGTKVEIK", "VAL": "2 RU"}
{"BINDER": "mAb25502 (antibody, human IgG4, V domains shown) VH: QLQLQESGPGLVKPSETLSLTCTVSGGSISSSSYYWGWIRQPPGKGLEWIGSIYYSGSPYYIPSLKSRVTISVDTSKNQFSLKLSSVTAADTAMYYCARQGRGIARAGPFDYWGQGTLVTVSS VL: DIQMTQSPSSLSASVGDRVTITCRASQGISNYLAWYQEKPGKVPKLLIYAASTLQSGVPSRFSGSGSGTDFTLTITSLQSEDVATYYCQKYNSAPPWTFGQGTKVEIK", "VAL": "1 RU"}

Now look at this one.
Give recorded 100 nM Ag Bound (RU). mAb25491 (antibody, human IgG4, V domains shown) VH: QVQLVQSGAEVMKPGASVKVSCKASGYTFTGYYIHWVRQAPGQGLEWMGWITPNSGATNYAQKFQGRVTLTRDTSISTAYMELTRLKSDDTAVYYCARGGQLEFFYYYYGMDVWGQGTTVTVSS VL: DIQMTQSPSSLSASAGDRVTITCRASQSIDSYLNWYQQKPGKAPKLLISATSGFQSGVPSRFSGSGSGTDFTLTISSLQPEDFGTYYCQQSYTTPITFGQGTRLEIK
1 RU
